# experimental_system: Thioredoxin reductase 1, cytoplasmic (Rattus norvegicus)
# assay_comment: qHTS Assay for Inhibitors of Mammalian Selenoprotein Thioredoxin Reductase 1 (TrxR1) (AID 488773); further: nearly all actives have a fitted effect of over 40% in size; further: potency means the concentration at half of the fitted maximal effect
# condition_set: purified TrxR1 enzyme activity; inhibition; series mostly up to 57.1 µM
Results filed as inconclusive are left out. Active and inactive are the calls of the source. The call rests on the fitted dose curve; in most records, active means well fitted inhibition curve with a large enough effect; inconclusive means small, poorly fitted or top-dose-only effect; inactive means no such curve, though single readings can be large or run the other way.
readout_label: Potency

// worked examples, Potency included
[[record]]
compound = "O=c1ccc2ccc(O)c(O)c2o1"
measured_result = "inactive"

[[record]]
compound = "CC(=O)O[C@H]1C(=O)[C@@]2(C)C([C@H](OC(=O)c3ccccc3)[C@]3(O)C[C@H](OC(=O)[C@H](O)[C@@H](NC(=O)c4ccccc4)c4ccccc4)C(C)=C1C3(C)C)[C@]1(OC(C)=O)CO[C@@H]1C[C@@H]2O (stereo not given in full)"
measured_result = "inactive"

[[record]]
compound = "C[C@H](Cc1ccc(O)c(O)c1)[C@@H](C)Cc1ccc(O)c(O)c1"
measured_result = "9.47 µM (active)"

[[record]]
compound = "COc1cc2nc(N3CCN(C(=O)C4CCCO4)CC3)nc(N)c2cc1OC (stereo not given)"
measured_result = "inactive"


Quick note, Potency for "Oc1ccc(-c2nc(-c3ccc(F)cc3)c(-c3ccncc3)[nH]2)cc1" landed at inactive

* * *

# assay_comment: Drug repurposing screens with cells derived from glioblastoma tumor samples (AID 1345199); further: on the % scale 0 is the no-effect control and ±100 the full control effect; nearly all actives have a fitted effect of over 40% in size
# condition_set: GBM patient neurospheres viability, ATP luminescence, 48 h; at 45.9 µM (top of the series); tumour line B
Records with an inconclusive call do not appear.
This section presents compounds with their documented activity, negative = cell killing values.
API: value field is a number in %; no unit string.

[[record]]
molecule_smiles = "O=P(O)(O)C(O)(Cn1ccnc1)P(=O)(O)O"
measured_result = -3.43

[[record]]
molecule_smiles = "Cc1cc2c(s1)Nc1ccccc1N=C2N1CCN(C)CC1"
measured_result = -20.2


Next, consider the following compound.
Quick note, activity, negative = cell killing for "NC(=O)Cc1cccc(C(=O)c2ccccc2)c1N" landed at -10.2

* * *

# Test system: ATS95
# assay_comment: qHTS profiling for inhibitors of Plasmodium falciparum proliferation (AID 504749); further: nearly all actives have a fitted effect of over 60% in size; further: potency means the concentration at half of the fitted maximal effect
# condition_set: P. falciparum in erythrocytes, SYBR Green DNA, 72 h; series mostly up to 28.7 µM
Records with an inconclusive call do not appear. Activity calls are given as the source filed them. Calls come from the whole dose curve; as a rule, active = well fitted inhibition curve with a large enough effect; inconclusive = small, poorly fitted or top-dose-only effect; inactive = flat fitted curve, though single readings scatter.
readout_label: Potency

[[record]]
molecule_smiles = "O=c1oc2cc(O)ccc2s1"
experimental_system = "ATS95"
readout_label = "Potency"
measured_result = "inactive"

[[record]]
molecule_smiles = "Cc1ccc(NC(=O)c2ccc(CN3CCN(C)CC3)cc2)cc1Nc1nccc(-c2cccnc2)n1"
experimental_system = "ATS95"
readout_label = "Potency"
measured_result = "10 µM (active)"

[[record]]
molecule_smiles = "CN(C)C(=O)COC(=O)Cc1ccc(OC(=O)c2ccc(N=C(N)N)cc2)cc1"
experimental_system = "ATS95"
readout_label = "Potency"
measured_result = "inactive"

[[record]]
molecule_smiles = "C[C@H](Cn1cnc2c(N)ncnc21)OCP(=O)(O)O"
experimental_system = "ATS95"
readout_label = "Potency"
measured_result = "inactive"


* * *

# assay_comment: qHTS profiling for inhibitors of Plasmodium falciparum proliferation (AID 504749); further: nearly all actives have a fitted effect of over 60% in size;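 on activity, negative = inhibition: 0% = DMSO vehicle and full inhibition = artemisinin control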
# condition_set: P. falciparum in erythrocytes, SYBR Green DNA, 72 h; at 28.7 µM (top of the series); parasite line B
Inconclusive results are not listed. Calls of active or inactive are those of the source. The call rests on the fitted dose curve; in most records, active means well fitted inhibition curve with a large enough effect; inconclusive means small, poorly fitted or top-dose-only effect; inactive means flat fitted curve, though single readings scatter.
readout_label: activity, negative = inhibition

[[record]]
compound = "COc1ccc(C2(C#N)CCC(C(=O)O)CC2)cc1OC1CCCC1 (stereo unspecified)"
readout_label = "activity, negative = inhibition"
measured_result = "-9.11% (inactive)"

[[record]]
compound = "CNC[C@@H](O)[C@@H](O)[C@H](O)[C@H](O)CO"
readout_label = "activity, negative = inhibition"
measured_result = "5.8% (inactive)"

[[record]]
compound = "CN1CCC(=C2c3ccccc3CCc3sccc32)CC1"
readout_label = "activity, negative = inhibition"
measured_result = "-20.6% (inactive)"

[[record]]
compound = "Cc1cc2c(s1)Nc1ccccc1N=C2N1CCN(C)CC1"
readout_label = "activity, negative = inhibition"
measured_result = "8.04% (inactive)"

[[record]]
compound = "Nc1ccc(S(N)(=O)=O)cc1"
readout_label = "activity, negative = inhibition"
measured_result = "14.6% (inactive)"


Next, consider the following compound.
Quick note, activity, negative = inhibition for O=C(NC(Cc1cc(=O)[nH]c2ccccc12)C(=O)O)c1ccc(Cl)cc1 (stereo unspecified) landed at -14.9% (inactive)
